The values you see were collected from paper PMC3961306.

Quick reference: %-inhibition of ROCK2 of the listed items.
ASSAYED TARGET: panel of more than 300 wild-type and mutant kinases (313 kinase panel) (Homo sapiens)
ASSAY: Kinase profiling in a biochemical assay panel (mobility shift assays and ELISA), %-inhibition at 1 μM; selectivity entropy
CONDITION INFO: kinase ROCK2; 1 μM
Dear colleague, please return just the value in %, with no unit written.

The compound CC(=O)Nc1cccc(-n2c(=O)n(C3CC3)c(=O)c3c(Nc4ccc(I)cc4F)n(C)c(=O)c(C)c32)c1 showed %-inhibition of ROCK2 equal to 3

The compound CO[C@H]1C[C@@H]2CC[C@@H](C)[C@@](O)(O2)C(=O)C(=O)N2CCCC[C@H]2C(=O)O[C@H]([C@H](C)C[C@@H]2CC[C@@H](OC(=O)C(C)(CO)CO)[C@H](OC)C2)CC(=O)[C@H](C)/C=C(\C)[C@@H](O)[C@@H](OC)C(=O)[C@H](C)C[C@H](C)/C=C/C=C/C=C/1C showed %-inhibition of ROCK2 equal to -5.66

* * *

ASSAYED TARGET: panel of more than 300 wild-type and mutant kinases (313 kinase panel) (Homo sapiens)
ASSAY: Kinase profiling in a biochemical assay panel (mobility shift assays and ELISA), %-inhibition at 1 μM; selectivity entropy
CONDITION INFO: kinase PKCα; 1 μM
READOUT: %-inhibition of PKCα (%)
Dear colleague, please return just the value in %, with no unit written.

Answered cases to consult:
{"MOLECULE": "C[C@@H](Oc1cc(-c2cnn(C3CCNCC3)c2)cnc1N)c1c(Cl)ccc(F)c1Cl [crizotinib]", "%-inhibition of PKCα [%]": -8.47}
{"MOLECULE": "CCCS(=O)(=O)Nc1ccc(F)c(C(=O)c2c[nH]c3ncc(-c4ccc(Cl)cc4)cc23)c1F [vemurafenib]", "%-inhibition of PKCα [%]": -3.61}
{"MOLECULE": "CO[C@H]1C[C@@H]2CC[C@@H](C)[C@@](O)(O2)C(=O)C(=O)N2CCCC[C@H]2C(=O)O[C@H]([C@H](C)C[C@@H]2CC[C@@H](OCCO)[C@H](OC)C2)CC(=O)[C@H](C)/C=C(\\C)[C@@H](O)[C@@H](OC)C(=O)[C@H](C)C[C@H](C)/C=C/C=C/C=C/1C [everolimus]", "%-inhibition of PKCα [%]": -11}
{"MOLECULE": "CS(=O)(=O)CCNCc1ccc(-c2ccc3ncnc(Nc4ccc(OCc5cccc(F)c5)c(Cl)c4)c3c2)o1 [lapatinib]", "%-inhibition of PKCα [%]": 1}
{"MOLECULE": "Cc1ccc(C(=O)Nc2ccc(CN3CCN(C)CC3)c(C(F)(F)F)c2)cc1C#Cc1cnc2cccnn12 [ponatinib]", "%-inhibition of PKCα [%]": -3.29}

The molecule Cc1ccc(Nc2nccc(N(C)c3ccc4c(C)n(C)nc4c3)n2)cc1S(N)(=O)=O [pazopanib] showed %-inhibition of PKCα equal to 6

* * *

ASSAYED TARGET: panel of more than 300 wild-type and mutant kinases (313 kinase panel) (Homo sapiens)
ASSAY: Kinase profiling in a biochemical assay panel (mobility shift assays and ELISA), %-inhibition at 1 μM; selectivity entropy
CONDITION INFO: kinase SLK; 1 μM
Quick reference: %-inhibition of SLK of the listed items.
Value and unit, in that order.

The compound COc1cc2nccc(Oc3ccc(NC(=O)C4(C(=O)Nc5ccc(F)cc5)CC4)cc3)c2cc1OC [cabozantinib] showed %-inhibition of SLK equal to 52%

The compound CNC(=O)c1cc(Oc2ccc(NC(=O)Nc3ccc(Cl)c(C(F)(F)F)c3)c(F)c2)ccn1 showed %-inhibition of SLK equal to 29%

The compound O=S(=O)(c1cccc2cnccc12)N1CCCNCC1 showed %-inhibition of SLK equal to 4.5%

The compound CO[C@H]1C[C@@H]2CC[C@@H](C)[C@@](O)(O2)C(=O)C(=O)N2CCCC[C@H]2C(=O)O[C@H]([C@H](C)C[C@@H]2CC[C@@H](OC(=O)C(C)(CO)CO)[C@H](OC)C2)CC(=O)[C@H](C)/C=C(\C)[C@@H](O)[C@@H](OC)C(=O)[C@H](C)C[C@H](C)/C=C/C=C/C=C/1C showed %-inhibition of SLK equal to -4%

The compound Cc1cn(-c2cc(NC(=O)c3ccc(C)c(Nc4nccc(-c5cccnc5)n4)c3)cc(C(F)(F)F)c2)cn1 showed %-inhibition of SLK equal to -41%

The compound COc1cc2c(Nc3ccc(Br)cc3F)ncnc2cc1OCC1CCN(C)CC1 showed %-inhibition of SLK equal to 90%
